test system: SNB-19 CNS; experiment: NCI tumour cell line growth inhibition, 48 h
MEASURED METRIC: TGI

Completed entries (count: 2):
MOLECULE	TGI
CCOC(OC1=C(C#N)CCC1)C(C)[Se]c1ccccc1 (centres undefined)	> 100 µM
O=c1c2ccccc2n2c(-c3ccc(O)cc3)nnc2n1-c1ccccc1	39.7 µM

Need TGI, item O=C1C=C(Nc2ccc(Br)cc2)c2ccccc2C1=O 29.2 µM

Need TGI, item CC(C)Oc1ccc(-c2nn([C@@H](C)c3oc4ccc(F)cc4c(=O)c3-c3cccc(F)c3)c3ncnc(N)c23)cc1F > 100 µM

Need TGI, item CCc1n[nH]c(=O)n1O > 100 µM

Need TGI, item Nc1c(C(=O)Nc2cccc(C(F)(F)F)c2)sc2nc3c(cc12)C(O)CCC3 (centres undefined) > 100 µM

Need TGI, item Cc1cc2cn3c4ccc(O)cc4nc(N)c3c2cc1C 18.6 µM

Need TGI, item CCOC(CNc1nn2c(C)nnc2s1)OCC > 100 µM

Need TGI, item CC(=O)Nc1ccc(C2C(C(=O)Nc3ccccc3)=C(C)NC(C)=C2C(=O)Nc2ccccc2)cc1 > 100 µM

Need TGI, item NNC(=O)c1ccccc1Nc1nc(-c2cccs2)nc2ccc(Br)cc12 > 100 µM

Need TGI, item NC(Cc1ccccc1)P(=O)(O)O (centres undefined) > 100 µM

Need TGI, item CC1=C(C(=O)CC(=O)C(=O)Nc2ccc(Cl)cc2C)Sc2ccccc2N1 > 100 µM

Need TGI, item O=C(c1ccccc1)c1ccc2cccc(OC3OC(CO)C(O)C(O)C3O)c2n1 (centres undefined) > 100 µM

Need TGI, item COc1ccc(/C=C2\CCC(CN3CCOCC3)C2=O)cc1 (centres undefined) 26 µM

====

tested on: SF-539 CNS; test: NCI tumour cell line growth inhibition, 48 h
MEASURED METRIC: TGI (µM)
Note: unit µM is implicit; provide only the numeric part.

COMPOUND	STUDY SYSTEM	UNITS OF MEASURE	READOUT NUMBER
COc1cc(/C=C/C(=O)c2ccccc2)cc(OC)c1OC	SF-539 CNS	µM	10.1
COc1cc([C@@H]2c3cc4c(cc3[C@@H](OC3OC5CO[C@@H](c6cccs6)OC5C(O)C3O)[C@H]3COC(=O)[C@H]23)OCO4)cc(OC)c1O (stereo not given in full)	SF-539 CNS	µM	2.2

Need TGI, item COc1ccc(/C=C/C2C(C#N)=C(N)OC3=C2C(=O)CCC3)cc1 (stereo not given) 80.1

Need TGI, item C=C1c2nc3ccccc3n2C=C(c2ccc(C)cc2)N1c1ccccc1 7.46

Need TGI, item Cc1nn2c(/C=N/N=C(N)N)c(-c3ccc(Cl)c([N+](=O)[O-])c3)nc2s1 3.63

====

test system: NCI-H226 lung; assay: NCI tumour cell line growth inhibition, 48 h
MEASURED METRIC: TGI

Completed entries (count: 3):
COMPOUND	RESULT
COc1cc2cnc3c(c2c(OC)c1OC)Cc1cc2c(cc1-3)OCO2	> 100 µM
O=C1OC2C=CCC1C2 (stereo unspecified)	> 100 µM
NCCCCCn1c2c(c3ccccc3c1=O)C(=O)c1ccccc1-2	2.16 µM

Need TGI, item c1ccc(-c2nnc(CCCCCCCCc3nnc(-c4ccccc4)o3)o2)cc1 > 100 µM

Need TGI, item CC(C)Oc1ccc(-c2nn([C@@H](C)c3oc4ccc(F)cc4c(=O)c3-c3cccc(F)c3)c3ncnc(N)c23)cc1F > 100 µM

Need TGI, item CN(C)CCONC(=O)C12CC3CC(CC(C3)C1)C2 > 100 µM

Need TGI, item C=C(C(=O)OC)N1C(=O)CC(C)C1=O (stereo unspecified) 70.3 µM

Need TGI, item Nc1ncnc2c1ncn2C1CC(O)C(CO)O1 (stereo unspecified) > 100 µM

====

system: SK-MEL-2 melanoma; assay: NCI tumour cell line growth inhibition, 48 h
MEASURED METRIC: TGI

MOLECULE	MEASURED METRIC	RESULT
O=[N+]([O-])/C(C(Cl)=C(Cl)Cl)=C(/Br)SCc1ccccc1	TGI	13.8 µM
CC(=O)N1CCC(Nc2ncc3cc(Oc4ccc(F)cc4F)c(=O)n(C)c3n2)CC1	TGI	> 25 µM
O=c1oc2ccc(Cl)cc2c2ccccc12	TGI	50.9 µM
NNC(=O)c1ccccc1Nc1nc(-c2cccs2)nc2ccc(Br)cc12	TGI	> 100 µM
OC(COc1cccc2ccccc12)CN1CCOCC1 (stereo not drawn)	TGI	> 100 µM
COc1cc2nn(-c3ccccc3)nc2c2nonc12	TGI	> 100 µM
COc1cc(-c2nc3ccc(N4CCN(C)CC4)cc3[nH]2)c(OC)c2[nH]c(CO)nc12	TGI	> 100 µM
O=c1c2ccccc2n2c(-c3ccc(O)cc3)nnc2n1-c1ccccc1	TGI	40.9 µM

Notebook: pull reported TGI for SK-MEL-2 melanoma, entry CC(=O)Oc1cc(C(C)C)c(OCCN(C)C)cc1C > 100 µM

Notebook: pull reported TGI for SK-MEL-2 melanoma, entry COC(=O)c1cnc(Cl)c([N+](=O)[O-])c1 31.5 µM

Notebook: pull reported TGI for SK-MEL-2 melanoma, entry COc1ccc(/C=C2\CCC(CN3CCOCC3)C2=O)cc1 (stereo not drawn) 9.66 µM

====

tested on: SNB-19 CNS; assay: NCI tumour cell line growth inhibition, 48 h
MEASURED METRIC: TGI

COMPOUND	STUDY SYSTEM	RESULT
Cn1cc(-c2csc(-c3c[nH]c4ccccc34)n2)c2cnccc21	SNB-19 CNS	4.11 µM
CCCCCCCCCCCC[C@@H](O)[C@H]1CC[C@H]([C@H]2CC[C@H]([C@H](O)CC[C@H](O)CCCCCCCC3=C[C@H](C)OC3=O)O2)O1	SNB-19 CNS	2.62 µM
CCOc1ccc(NC(=O)/C(=C\c2ccc(C)cc2)C(C)=O)cc1	SNB-19 CNS	> 100 µM
O=S1OC[C@H](CCCl)O1 (some centres undefined)	SNB-19 CNS	> 100 µM
Nc1nc(Cl)c(N=Nc2ccc(Cl)cc2)c(NCC2(CO)CCC(CCc3ccccc3)C2)n1 (centres undefined)	SNB-19 CNS	48.7 µM
Nc1ccccc1Nc1ccccc1C(=O)[O-].Nc1ccccc1Nc1ccccc1C(=O)[O-].[Ni+2]	SNB-19 CNS	> 100 µM
Cc1ccc(S(=O)(=O)C(CC(NC=O)S(=O)(=O)c2ccc(C)cc2)NC=O)cc1 (centres undefined)	SNB-19 CNS	> 100 µM
Nn1c(SCC(=O)O)nc2ccccc2c1=O	SNB-19 CNS	> 100 µM

Here is another compound to look at.
Need TGI, item CN(C)c1ccc(/C=C2\C[C@H]3[C@@H]4CC=C5C[C@@H](O)CC[C@]5(C)[C@H]4CC[C@]3(C)C2=O)cc1 39.3 µM

====

system: UO-31 renal; assay: NCI tumour cell line growth inhibition, 48 h
MEASURED METRIC: TGI

Need TGI, item O=C(NC(Cc1ccc(I)cc1)C(=O)O)c1cccc(Br)c1 (stereo not drawn) > 100 µM

Need TGI, item Cc1[nH]c(=O)nc2nc3ccc(Cl)cc3c(N(CCO)CCO)c12 > 100 µM

Need TGI, item Cc1csc2nc(-c3ccncc3)cn12 > 100 µM

Need TGI, item CC(=O)OCC1OC(Nc2ccc3nc(C)n(-c4ccccc4)c(=O)c3c2)C(OC(C)=O)C(OC(C)=O)C1OC(C)=O (stereo not drawn) > 50 µM

Need TGI, item COc1ccc(/C=C2\COc3ccc(O)c(O)c3C2=O)cc1 1.97 µM

Need TGI, item CC(C)N(C(C)C)[PH+]1O[PH+](N(C(C)C)C(C)C)O[PH+](N(C(C)C)C(C)C)O[PH+](N(C(C)C)C(C)C)O1.[C-]#[O+].[C-]#[O+].[C-]#[O+].[C-]#[O+].[C-]#[O+].[C-]#[O+].[C-]#[O+].[C-]#[O+].[Mo].[Mo] (stereo not drawn) > 100 µM

Need TGI, item O=C(CN1CCN(c2cccc(Cl)c2)CC1)N1CCc2c([nH]c3ccccc23)C1c1cccnc1 (stereo not drawn) 57.7 µM

====

Collected GI50 values appear next to each entry.
system: SNB-75 CNS; assay: NCI tumour cell line growth inhibition, 48 h

Completed entries (count: 4):
MOLECULE	MEASURED METRIC	RESULT
CCc1ccc(C(=O)/C=C/C23c4ccccc4C(c4ccccc42)C2C(=O)NC(=O)C23)cc1 (stereo not given)	GI50	1670 nM
COc1ccc(-c2ccc(-c3ccc(C(=N)N)c(F)c3)s2)cc1	GI50	1620 nM
Cc1nn2c(/C=N/N=C(N)N)c(-c3ccc(Cl)c([N+](=O)[O-])c3)nc2s1	GI50	1360 nM
Cn1cc(-c2csc(-c3c[nH]c4ccccc34)n2)c2cnccc21	GI50	12900 nM

Here is another molecule to look at.
Need GI50, item [2H]c1nc(C)nc([2H])c1-c1cc(NC[C@@H](C)c2cccc3c(C(=O)NC)ccnc23)ncn1 > 100000 nM
